Kindly supply the reported speed of sound values for the records listed here.
condition.info: 312.16 K; 101.33 kPa; Liquid; Pulse-echo method
Provide the reading as a plain figure in m/s.

Specify reported speed of sound for the compound shown: CCCC(=O)[O-].C[NH2+]CCO [N-methyl-2-hydroxyethylammonium butanoate] 1570.6

Specify reported speed of sound for the compound shown: CC(C)C(=O)[O-].C[NH2+]CCO [2-hydroxy-N-methylethanaminium isobutyrate] 1571.8

Specify reported speed of sound for the compound shown: C[NH2+]CCO.O=C[O-] [2-hydroxy-N-methylethanaminium formate] 1788

Specify reported speed of sound for the compound shown: CCC(=O)[O-].C[NH2+]CCO [2-hydroxy-N-methylethanaminium propionate] 1648.7

Specify reported speed of sound for the compound shown: CCCCC(=O)[O-].C[NH2+]CCO [2-hydroxy-N-methylethanaminium pentanoate] 1505.3

====

Kindly supply the reported speed of sound values for the records listed here.
condition.info: 323.91 K; 101.33 kPa; Liquid; Pulse-echo method
Provide the reading as a plain figure in m/s.

Specify reported speed of sound for the compound shown: CCC(=O)[O-].C[NH2+]CCO [2-hydroxy-N-methylethanaminium propionate] 1613.7

Specify reported speed of sound for the compound shown: CCCC(=O)[O-].C[NH2+]CCO [N-methyl-2-hydroxyethylammonium butanoate] 1533.9

Specify reported speed of sound for the compound shown: C[NH2+]CCO.O=C[O-] [2-hydroxy-N-methylethanaminium formate] 1765.2

Specify reported speed of sound for the compound shown: CC(C)C(=O)[O-].C[NH2+]CCO [2-hydroxy-N-methylethanaminium isobutyrate] 1538.5

Specify reported speed of sound for the compound shown: CCCCC(=O)[O-].C[NH2+]CCO [2-hydroxy-N-methylethanaminium pentanoate] 1469.2

====

condition.info: 330.41 K; 101.33 kPa; Liquid; Vibrating tube method
Kindly supply the reported mass density values for the records listed here.
Provide the reading as a plain figure in kg/m3.

Specify reported mass density for the compound shown: C[NH2+]CCO.O=C[O-] [2-hydroxy-N-methylethanaminium formate] 1110.38

Specify reported mass density for the compound shown: CC(=O)[O-].C[NH2+]CCO [N-methyl-2-hydroxyethylammonium acetate] 1081.08

Specify reported mass density for the compound shown: CCCC(=O)[O-].C[NH2+]CCO [N-methyl-2-hydroxyethylammonium butanoate] 1017.19

Specify reported mass density for the compound shown: CCC(=O)[O-].C[NH2+]CCO [2-hydroxy-N-methylethanaminium propionate] 1049.9

Specify reported mass density for the compound shown: CC(C)C(=O)[O-].C[NH2+]CCO [2-hydroxy-N-methylethanaminium isobutyrate] 1022.14

Specify reported mass density for the compound shown: CCCCC(=O)[O-].C[NH2+]CCO [2-hydroxy-N-methylethanaminium pentanoate] 994.177

====

condition.info: 313.9 K; 101.33 kPa; Liquid; Vibrating tube method
Kindly supply the reported mass density values for the records listed here.
Provide the reading as a plain figure in kg/m3.

Specify reported mass density for the molecule shown: CCCCC(=O)[O-].C[NH2+]CCO [2-hydroxy-N-methylethanaminium pentanoate] 1005.61

Specify reported mass density for the molecule shown: CCC(=O)[O-].C[NH2+]CCO [2-hydroxy-N-methylethanaminium propionate] 1061

Specify reported mass density for the molecule shown: CC(=O)[O-].C[NH2+]CCO [N-methyl-2-hydroxyethylammonium acetate] 1091.32

Specify reported mass density for the molecule shown: CC(C)C(=O)[O-].C[NH2+]CCO [2-hydroxy-N-methylethanaminium isobutyrate] 1033.16

Specify reported mass density for the molecule shown: C[NH2+]CCO.O=C[O-] [2-hydroxy-N-methylethanaminium formate] 1119.46

Specify reported mass density for the molecule shown: CCCC(=O)[O-].C[NH2+]CCO [N-methyl-2-hydroxyethylammonium butanoate] 1028.64

====

condition.info: 305.65 K; 101.33 kPa; Liquid; Pulse-echo method
Kindly supply the reported speed of sound values for the records listed here.
Provide the reading as a plain figure in m/s.

Specify reported speed of sound for the compound shown: CCC(=O)[O-].C[NH2+]CCO [2-hydroxy-N-methylethanaminium propionate] 1667.9

Specify reported speed of sound for the compound shown: CCCC(=O)[O-].C[NH2+]CCO [N-methyl-2-hydroxyethylammonium butanoate] 1590.8

Specify reported speed of sound for the compound shown: CC(C)C(=O)[O-].C[NH2+]CCO [2-hydroxy-N-methylethanaminium isobutyrate] 1590.1

Specify reported speed of sound for the compound shown: CCCCC(=O)[O-].C[NH2+]CCO [2-hydroxy-N-methylethanaminium pentanoate] 1525.3

Specify reported speed of sound for the compound shown: C[NH2+]CCO.O=C[O-] [2-hydroxy-N-methylethanaminium formate] 1800.7

====

condition.info: 294.15 K; 101.33 kPa; Liquid; Pulse-echo method
± gives the expanded uncertainty stated by the source.
Kindly supply the reported speed of sound values for the records listed here.
Answers without a unit are incomplete; give the number and then its unit.

Specify reported speed of sound for the compound shown: CCC(=O)[O-].C[NH2+]CCO [2-hydroxy-N-methylethanaminium propionate] 1701.9 ± 2.2 m/s

Specify reported speed of sound for the compound shown: CCCCC(=O)[O-].C[NH2+]CCO [2-hydroxy-N-methylethanaminium pentanoate] 1561.5 ± 2.1 m/s

Specify reported speed of sound for the compound shown: CC(C)C(=O)[O-].C[NH2+]CCO [2-hydroxy-N-methylethanaminium isobutyrate] 1622.7 ± 2.1 m/s

Specify reported speed of sound for the compound shown: C[NH2+]CCO.O=C[O-] [2-hydroxy-N-methylethanaminium formate] 1823.2 ± 2.2 m/s

Specify reported speed of sound for the compound shown: CCCC(=O)[O-].C[NH2+]CCO [N-methyl-2-hydroxyethylammonium butanoate] 1627.4 ± 2.1 m/s

====

condition.info: 312.66 K; 101.33 kPa; Liquid; Vibrating tube method
Kindly supply the reported mass density values for the records listed here.
Provide the reading as a plain figure in kg/m3.

Specify reported mass density for the compound shown: CCC(=O)[O-].C[NH2+]CCO [2-hydroxy-N-methylethanaminium propionate] 1061.83

Specify reported mass density for the compound shown: CCCCC(=O)[O-].C[NH2+]CCO [2-hydroxy-N-methylethanaminium pentanoate] 1006.46

Specify reported mass density for the compound shown: C[NH2+]CCO.O=C[O-] [2-hydroxy-N-methylethanaminium formate] 1120.15

Specify reported mass density for the compound shown: CCCC(=O)[O-].C[NH2+]CCO [N-methyl-2-hydroxyethylammonium butanoate] 1029.49

Specify reported mass density for the compound shown: CC(C)C(=O)[O-].C[NH2+]CCO [2-hydroxy-N-methylethanaminium isobutyrate] 1033.99

Specify reported mass density for the compound shown: CC(=O)[O-].C[NH2+]CCO [N-methyl-2-hydroxyethylammonium acetate] 1092.09

====

Kindly supply the reported speed of sound values for the records listed here.
condition.info: 311.65 K; 101.33 kPa; Liquid; Pulse-echo method
Provide the reading as a plain figure in m/s.

Specify reported speed of sound for the compound shown: CCCC(=O)[O-].C[NH2+]CCO [N-methyl-2-hydroxyethylammonium butanoate] 1572.2

Specify reported speed of sound for the compound shown: CCC(=O)[O-].C[NH2+]CCO [2-hydroxy-N-methylethanaminium propionate] 1650.2

Specify reported speed of sound for the compound shown: C[NH2+]CCO.O=C[O-] [2-hydroxy-N-methylethanaminium formate] 1789

Specify reported speed of sound for the compound shown: CCCCC(=O)[O-].C[NH2+]CCO [2-hydroxy-N-methylethanaminium pentanoate] 1506.8

Specify reported speed of sound for the compound shown: CC(C)C(=O)[O-].C[NH2+]CCO [2-hydroxy-N-methylethanaminium isobutyrate] 1573.2

====

condition.info: 325.4 K; 101.33 kPa; Liquid; Vibrating tube method
observation.type: mass density (kg/m3)
Provide the reading as a plain figure in kg/m3.

Specify reported mass density for the compound shown: CCCCC(=O)[O-].C[NH2+]CCO [2-hydroxy-N-methylethanaminium pentanoate] 997.672

Specify reported mass density for the compound shown: C[NH2+]CCO.O=C[O-] [2-hydroxy-N-methylethanaminium formate] 1113.1

Specify reported mass density for the compound shown: CCCC(=O)[O-].C[NH2+]CCO [N-methyl-2-hydroxyethylammonium butanoate] 1020.69

Specify reported mass density for the compound shown: CC(C)C(=O)[O-].C[NH2+]CCO [2-hydroxy-N-methylethanaminium isobutyrate] 1025.52

Specify reported mass density for the compound shown: CC(=O)[O-].C[NH2+]CCO [N-methyl-2-hydroxyethylammonium acetate] 1084.22

Specify reported mass density for the compound shown: CCC(=O)[O-].C[NH2+]CCO [2-hydroxy-N-methylethanaminium propionate] 1053.3

====

Kindly supply the reported speed of sound values for the records listed here.
condition.info: 279.9 K; 101.33 kPa; Liquid; Pulse-echo method
Provide the reading as a plain figure in m/s.

Specify reported speed of sound for the molecule shown: C[NH2+]CCO.O=C[O-] [2-hydroxy-N-methylethanaminium formate] 1851.2

Specify reported speed of sound for the molecule shown: CC(C)C(=O)[O-].C[NH2+]CCO [2-hydroxy-N-methylethanaminium isobutyrate] 1664.7

Specify reported speed of sound for the molecule shown: CCC(=O)[O-].C[NH2+]CCO [2-hydroxy-N-methylethanaminium propionate] 1746.5

Specify reported speed of sound for the molecule shown: CCCC(=O)[O-].C[NH2+]CCO [N-methyl-2-hydroxyethylammonium butanoate] 1676.8

Specify reported speed of sound for the molecule shown: CCCCC(=O)[O-].C[NH2+]CCO [2-hydroxy-N-methylethanaminium pentanoate] 1610.1
